Quick list: relative IC50 per entry.
test system: ZR-75-1; test: relative IC50 (midpoint of fitted logistic curve, plateau may be below 50% inhibition; CellTiter-Glo viability); higher = less potent; conditions: 4-OH-tamoxifen in medium 0 µM; 72 h

Request body: readout relative IC50, system ZR-75-1, query COc1ccc(S(=O)(=O)Nc2cccnc2Nc2ccc(O)cc2)cc1 [ABT-751] . Return the value. 0.412 µM

Request body: readout relative IC50, system ZR-75-1, query C1CN1c1nc(N2CC2)nc(N2CC2)n1 [Triethylenemelamine] . Return the value. > 10 µM

Request body: readout relative IC50, system ZR-75-1, query COc1c2occc2cc2ccc(=O)oc12 [Methoxsalen] . Return the value. > 10 µM

Request body: readout relative IC50, system ZR-75-1, query C=CCN(/C=C1/C(=O)O[C@H](COC)[C@@]2(C)C1=C(O)C(=O)C1=C2[C@H](OC(C)=O)C[C@]2(C)C(=O)CC[C@@H]12)CC=C [Sonolisib (PX-866)] . Return the value. > 10 µM

Request body: readout relative IC50, system ZR-75-1, query CS(=O)(=O)c1ccc(C(=O)Nc2ccc(Cl)c(-c3ccccn3)c2)c(Cl)c1 [Vismodegib] . Return the value. > 10 µM

Request body: readout relative IC50, system ZR-75-1, query CC(C)Cn1cnc2c(N)nc3ccccc3c21 [Imiquimod] . Return the value. > 10 µM

Request body: readout relative IC50, system ZR-75-1, query CCc1c2c(nc3ccc(OC(=O)N4CCC(N5CCCCC5)CC4)cc13)-c1cc3c(c(=O)n1C2)COC(=O)[C@]3(O)CC [Irinotecan] . Return the value. 1.71 µM

Request body: readout relative IC50, system ZR-75-1, query C#Cc1cccc(Nc2ncnc3cc(OC)c(OCCCCCCC(=O)NO)cc23)c1 [CUDC-101] . Return the value. 1.6 µM

----------
test system: ZR-75-1 Tam2; experiment: viability inhibition at highest dose (% inhibition); higher = more growth inhibition; conditions: 4-OH-tamoxifen in medium 1 µM; 72 h
Quick list: viability inhibition at highest dose per entry.

Example cases with answers are listed next.
Cc1cc2c(F)c(Oc3ncnn4cc(OC[C@@H](C)O)c(C)c34)ccc2[nH]1 [Brivanib] (drug 1000 nM) | 3.72
COc1cc([C@@H]2c3cc4c(cc3[C@@H](O[C@@H]3O[C@@H]5CO[C@@H](c6cccs6)O[C@H]5[C@H](O)[C@H]3O)[C@H]3COC(=O)[C@H]23)OCO4)cc(OC)c1O [Teniposide] (drug 10000 nM) | 42.4
CC(=O)OC[C@H]1O[C@@H]([S-])[C@H](OC(C)=O)[C@@H](OC(C)=O)[C@@H]1OC(C)=O.CCP(CC)CC.[Au+] [Auranofin] (drug 2500 nM) | 12.5
Nc1nc2[nH]cnc2c(=S)[nH]1 [Thioguanine] (drug 10000 nM) | 32.6
C=CCNC1=C2C[C@@H](C)C[C@H](OC)[C@H](O)[C@@H](C)/C=C(\C)[C@H](OC(N)=O)[C@@H](OC)/C=C\C=C(/C)C(=O)NC(=CC1=O)C2=O [Tanespimycin (17-AAG)] (drug 10000 nM) | 48.8

In the following, a different molecule is considered.
Tell me the measured viability inhibition at highest dose of Oc1ncc(N(CCCl)CCCl)c(O)n1 [Uracil mustard] (drug 10000 nM) , please. 2.56

Value source: the supplement of paper PMC4932681
